measure-name: melting point (°C)

I. Nc1ccc(/C=C/c2ccc([N+](=O)[O-])cc2)c([N+](=O)[O-])c1 [3-nitro-4-[(E)-2-(4-nitrophenyl)ethenyl]aniline]
II. CCCCCCCCCCCCCCCCCCCC(=O)O [arachidic acid]
III. CC(C)CCCCC(C)C [2,7-dimethyloctane]
IV. COC(=O)C12C=CC(CC1)C1C(=O)OC(=O)C12 (centres undefined)
V. CCCCS(=O)CCCC [di-n-butyl sulfoxide]
Query: Rank entries according to their melting point, from the largest number down. Answer format: the labels, in the requested order.
Response: I, IV, II, V, III
(I: 202 °C, IV: 117 °C, II: 75 °C, V: 33 °C, III: -54 °C)

###

measure-name: melting point (°C)

Use these answered entries as a reference point.
O=C(/C=C/c1ccc(Br)o1)c1ccco1 : 77
Oc1ccccc1-c1ccno1 : 185
O=S(=O)(Cl)c1ccc(Cl)cc1 [4-chlorobenzenesulfonyl chloride] : 52

A. BrC(c1ccccc1)c1ccccc1
B. NCC[C@H](O)C(=O)N[C@@H]1C[C@H](N)[C@@H](O[C@H]2O[C@H](CN)[C@@H](O)[C@H](O)[C@H]2O)[C@H](O)[C@H]1O[C@H]1O[C@H](CO)[C@@H](O)[C@H](N)[C@H]1O
Query: Could you point out whether the larger melting point belongs to A or to B ? Answer by stating the label of the chosen item.
Response: B

###

measure-name: melting point (°C)

O=C(O)/C=C\C(=O)O : 138
CCCCCCCCCCCCc1ccccc1 [Dodecylbenzene] : -7
O=C1CCC(=O)N1Br [n-bromosuccinimide] : 180
O=C1OC2(OC=C(c3ccccc3)C2=O)c2ccccc21 (stereo not given) : 157
OCc1ccc(B(O)O)cc1 [4-(hydroxymethyl)benzeneboronic acid] : 280
Nc1c(Cl)cccc1Cl : 39

1. O=Cc1ccc(CO)o1 [5-hydroxymethyl-2-furaldehyde]
2. OC1c2ccccc2-c2ccccc21
3. O=C(O)/C(=C/c1ccccc1)c1ccc([N+](=O)[O-])cc1 [(E)-2-(4-nitrophenyl)-3-phenylpropenoic acid]
4. O=C(C=C/C(=O)OCC)OCC [diethyl_maleate]
Query: # rank by melting point, ascending (min first) Answer format: the labels, in the requested order.
Response: 4, 1, 2, 3
(4: -10 °C, 1: 34 °C, 2: 156 °C, 3: 228 °C)

###

measure-name: melting point (°C)

O[C@@H]1CC[C@H](C[C@H]1OC)/C=C(C)[C@H]2OC(=O)[C@@H]4CCCCN4C(=O)C(=O)[C@]3(O)O[C@H]([C@H](C[C@@H](C)CC(C)=C[C@@H](CC=C)C(=O)C[C@H](O)[C@H]2C)OC)[C@H](C[C@H]3C)OC : 126
CCSC(SCC)=C1CCCC(=C(SCC)SCC)C1=C(C#N)C#N : 101
CNC(C)C(O)c1ccccc1 (stereo not given) : 36

A. CSc1ccc(CC(=O)O)cc1
B. COc1cc2nc(N3CCN(C(=O)c4ccco4)CC3)nc(N)c2cc1OC
Query: Could you point out whether the larger melting point belongs to A or to B ? Answer by stating the label of the chosen item.
Response: B

###

measure-name: melting point (°C)

Use these answered entries as a reference point.
CC=1CCC[C@](C)(C)C=1/C=CC(C)=CC=CC(C)=CC(=O)O : 190
CC(=O)Oc1ccccc1C(=O)O : 142
O=C(/C=C/c1ccc(-c2ccccc2)o1)c1ccco1 : 100
O=C(O)c1cccc(C(=O)c2ccccc2)c1 : 164
N#CC1(C#N)C=C(c2ccccc2)c2ccccc21 : 135

A. CCCCCCC(O)CCCCCCCCCCC(=O)O (centres undefined) [12-hydroxystearic acid]
B. COc1cccc(OC)c1OC
C. COc1cc(/C=C/C(=O)CC(=O)/C=C/c2ccc(O)c(OC)c2)ccc1O
Query: Task field, ranking: reported melting point, descending order. Answer format: the labels, in the requested order.
Response: C, A, B
(C: 173 °C, A: 75 °C, B: 45 °C)
